ASSAY_PROCEDURE: Mean residence time in cynomolgus monkey at 2 mg/kg, iv
Format: ADME, organism-based, Macaca fascicularis
PARTICULARS: in vivo
ASSAY_READOUT: MRT (h)
The figure you give is taken to be in h; do not add the unit.

Which MRT value is on record for O=C(O)C1CN(Cc2ccc(-c3noc(-c4onc(-c5ccccc5)c4C(F)(F)F)n3)cc2)C1 ? 2.2

* * *

Species: Homo sapiens
ASSAY_PROCEDURE: Selectivity ratio of EC50 for human S1P3 receptor to EC50 for human S1P1 receptor
Label TRUE when Ratio EC50 is at or above 4000; otherwise label FALSE.

Does Ratio EC50 meet or surpass 4000 for CCCc1c(-c2ccccc2)noc1-c1nc(-c2ccc(CN3CC(C(=O)O)C3)cc2)no1 ? FALSE

Dear colleague, could you confirm whether CCCc1c(-c2nc(-c3ccc(CN4CC(C(=O)O)C4)cc3)no2)noc1CC(C)C has Ratio EC50 at or above 4000? FALSE

Is reported Ratio EC50 greater than or equal to 4000 here: Cc1c(-c2ccccc2)noc1-c1nc(-c2ccc(CN3CC(C(=O)O)C3)cc2)no1 TRUE

hey, is Ratio EC50 for this one >= 4000? CC(F)(F)c1c(-c2nc(-c3ccc(CN4CC(C(=O)O)C4)cc3)no2)noc1-c1ccccc1 FALSE

Textbook exercise: given the entry O=C(O)C1CN(Cc2ccc(-c3noc(-c4cc(-c5ccccc5)on4)n3)cc2)C1 , state whether its Ratio EC50 is greater than or equal to 4000. FALSE
